Recorded pIC50 values (FAS (Homo sapiens)) are given below.
Quick note: pIC50 means taking -log10 of the concentration in moles per liter.

substance-smiles	pIC50
Cc1cc(=O)n(-c2ccc(-c3ccc4cc[nH]c4c3)cc2)c(C[C@@H]2CCN(C(=O)C3CC3)C2)n1	8.00
COc1ccc(-c2ccc(-c3nc4ccccc4c(=O)n3C[C@@H]3CCN(C(=O)C4CC4)C3)cc2)c(Cl)c1	6.70

QUERY: For FAS (Homo sapiens), provide pIC50 of `Cc1nc2c(=O)n(C[C@@H]3CCN(C(=O)C4CC4)C3)c(-c3ccc(-c4ccc5[nH]ncc5c4)cc3)nc2o1` please.
RESULT: 7.60

These measurements were taken from patent US20130303551A1.
